The reported measurements were obtained from patent US20250213555A1.

STUDY TARGET: human Nav 1.8 (Homo sapiens)
ASSAY TEXT: E-VIPR assay detecting and measuring Nav inhibition properties
Assay type: cell-based
RUN PARAMETERS: HEK cells expressing a truncated form of human Nav 1.8; compound numbers without "*" (not marked as run in the presence of human serum); read-out: measured IC50 value in the E-VIPR Assay
Consider the following compounds; for each one, report its IC50.

Consider C[C@H]1[C@@H](c2ccc(F)c(F)c2OCCCO)[C@H](C(=O)Nc2ccnc(C(N)=O)c2)O[C@@]1(C)C(F)(F)F [Compound 72] . Its measured IC50 is < 10 nM

Consider COc1c([C@H]2[C@H](C(=O)Nc3ccnc(C(=O)N4CCN(C)C(C)(C)C4)c3)O[C@@](C)(C(F)(F)F)[C@H]2C)ccc(F)c1F [Compound 280] . Its measured IC50 is < 10 nM

Consider C[C@H]1[C@@H](c2ccc(F)c(F)c2OCCN2CC3(CCOC3)C2)[C@H](C(=O)Nc2ccnc(C(=O)N3CC4(CCOC4)C3)c2)O[C@@]1(C)C(F)(F)F [Compound 123] . Its measured IC50 is ≥ 1000 nM

Consider C[C@@H]1[C@H](c2ccc(F)c3c2CCC3(F)F)[C@@H](C(=O)Nc2ccnc(C(N)=O)c2)O[C@]1(C)C(F)(F)F (single isomer, unassigned) [Compound 148] . Its measured IC50 is ≥ 1000 nM

Consider COc1c([C@H]2[C@H](C(=O)Nc3ccnc(C(=O)N4C[C@H]5CC[C@@H](C4)NC5)c3)O[C@@](C)(C(F)(F)F)[C@H]2C)ccc(F)c1F [Compound 244] . Its measured IC50 is < 10 nM

Consider COCC(CO)COc1c([C@H]2[C@H](C(=O)Nc3ccnc(C(N)=O)c3)O[C@@](C)(C(F)(F)F)[C@H]2C)ccc(F)c1F (stereo partly drawn) [Compound 155] . Its measured IC50 is 10 to 100 nM

###

STUDY TARGET: human Nav 1.8 (Homo sapiens, UniProt Q9Y5Y9)
Sequence (Q9Y5Y9 126-399 limits assumed): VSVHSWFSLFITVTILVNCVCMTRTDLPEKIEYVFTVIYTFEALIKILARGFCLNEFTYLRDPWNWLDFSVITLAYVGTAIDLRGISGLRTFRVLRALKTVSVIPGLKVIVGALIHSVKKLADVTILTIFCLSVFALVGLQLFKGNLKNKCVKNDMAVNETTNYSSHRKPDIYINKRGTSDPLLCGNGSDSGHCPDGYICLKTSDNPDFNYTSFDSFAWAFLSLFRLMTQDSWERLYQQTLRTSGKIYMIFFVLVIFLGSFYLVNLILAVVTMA
Sequence (Q9Y5Y9 660-890 limits assumed): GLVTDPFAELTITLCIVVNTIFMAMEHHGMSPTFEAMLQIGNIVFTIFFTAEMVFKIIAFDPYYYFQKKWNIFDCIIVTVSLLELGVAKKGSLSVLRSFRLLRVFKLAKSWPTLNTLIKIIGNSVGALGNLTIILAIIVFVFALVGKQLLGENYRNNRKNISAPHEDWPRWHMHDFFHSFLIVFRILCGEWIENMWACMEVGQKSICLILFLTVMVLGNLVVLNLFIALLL
Sequence (Q9Y5Y9 1148-1722 limits assumed): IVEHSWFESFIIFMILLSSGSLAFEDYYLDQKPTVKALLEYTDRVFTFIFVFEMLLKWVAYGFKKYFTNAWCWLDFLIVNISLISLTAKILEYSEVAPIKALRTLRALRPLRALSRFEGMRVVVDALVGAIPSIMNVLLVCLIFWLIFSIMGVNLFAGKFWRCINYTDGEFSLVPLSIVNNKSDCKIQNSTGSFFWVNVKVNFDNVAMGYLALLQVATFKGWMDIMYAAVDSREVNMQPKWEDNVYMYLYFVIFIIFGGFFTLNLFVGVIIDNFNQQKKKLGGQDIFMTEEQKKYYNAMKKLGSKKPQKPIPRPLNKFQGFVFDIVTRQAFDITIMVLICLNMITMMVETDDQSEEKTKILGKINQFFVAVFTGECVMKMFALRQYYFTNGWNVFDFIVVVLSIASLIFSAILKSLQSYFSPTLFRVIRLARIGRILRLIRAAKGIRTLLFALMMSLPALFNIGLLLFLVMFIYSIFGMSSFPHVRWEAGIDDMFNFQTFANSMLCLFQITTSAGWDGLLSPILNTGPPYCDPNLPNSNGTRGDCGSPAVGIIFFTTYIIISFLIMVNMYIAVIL
ASSAY TEXT: E-VIPR assay detecting and measuring Nav inhibition properties
Format: cell-based
RUN PARAMETERS: HEK cells expressing a truncated form of human Nav 1.8; compound numbers without "*" (not marked as run in the presence of human serum); read-out: measured IC50 value in the E-VIPR Assay
pIC50: −log10 of the molar value.
RESULT TYPE: pIC50

Consider CNCCNC(=O)c1cc(NC(=O)[C@@H]2O[C@@](C)(C(F)(F)F)[C@@H](C)[C@H]2c2ccc(F)c(F)c2OC)ccn1 [Compound 231] . Its measured pIC50 is > 8.00

Consider C[C@H]1[C@@H](c2ccc(F)c(F)c2OCCC(C)(C)C#N)[C@H](C(=O)Nc2ccnc(C(N)=O)c2)O[C@@]1(C)C(F)(F)F [Compound 74] . Its measured pIC50 is 7.00 to 8.00

Consider CCO[C@H]1CN(C)C[C@@H]1NC(=O)c1cc(NC(=O)[C@@H]2O[C@@](C)(C(F)(F)F)[C@@H](C)[C@H]2c2ccc(F)c(F)c2OC)ccn1 [Compound 291] . Its measured pIC50 is 6.00 to 7.00

Consider C[C@H](COc1c([C@H]2[C@H](C(=O)Nc3ccnc(C(N)=O)c3)O[C@@](C)(C(F)(F)F)[C@H]2C)ccc(F)c1F)N1CC2(COC2)C1 [Compound 42] . Its measured pIC50 is 7.00 to 8.00

Consider Cc1cnc(C(N)=O)cc1NC(=O)[C@@H]1O[C@@](C)(C(F)(F)F)[C@@H](C)[C@H]1c1ccc(F)c(F)c1OCCN1CC2(COC2)C1 [Compound 181] . Its measured pIC50 is 7.00 to 8.00

Consider CC(CO)COc1c([C@H]2[C@H](C(=O)Nc3ccnc(C(N)=O)c3)O[C@@](C)(C(F)(F)F)[C@H]2C)ccc(F)c1F (stereo partly drawn) [Compound 90] . Its measured pIC50 is > 8.00
